log10 of IC50 for assorted molecules
experimental.details: Cytotoxicity against human BGC823 cells after 48 hrs by MTT assay
Type: functional, cell-based
assay.setup: BGC-823, 48 h
Note: values are log10 of IC50 expressed in µM.

Below, 3 molecules whose answers are already recorded.
structure | reported.value
O=C(CSc1nnc(-c2ccncc2)o1)N/N=C/c1ccccc1 | 1.34
O=C(CSc1nnc(-c2ccncc2)o1)N/N=C/c1ccco1 | 1.41
O=C(CSc1nnc(-c2ccncc2)o1)N/N=C/c1ccccc1F | 1.38

IN: Recorded log10 of IC50 for `O=C(CSc1nnc(-c2ccncc2)o1)N/N=C/c1ccc(O)c(O)c1` , please?
OUT: 0.10
